- study.system: human GluN1/GluN2B NMDA receptors (Homo sapiens, UniProt Q05586+Q13224)
- Sequence (Q13224 27-1484, other chains not shown): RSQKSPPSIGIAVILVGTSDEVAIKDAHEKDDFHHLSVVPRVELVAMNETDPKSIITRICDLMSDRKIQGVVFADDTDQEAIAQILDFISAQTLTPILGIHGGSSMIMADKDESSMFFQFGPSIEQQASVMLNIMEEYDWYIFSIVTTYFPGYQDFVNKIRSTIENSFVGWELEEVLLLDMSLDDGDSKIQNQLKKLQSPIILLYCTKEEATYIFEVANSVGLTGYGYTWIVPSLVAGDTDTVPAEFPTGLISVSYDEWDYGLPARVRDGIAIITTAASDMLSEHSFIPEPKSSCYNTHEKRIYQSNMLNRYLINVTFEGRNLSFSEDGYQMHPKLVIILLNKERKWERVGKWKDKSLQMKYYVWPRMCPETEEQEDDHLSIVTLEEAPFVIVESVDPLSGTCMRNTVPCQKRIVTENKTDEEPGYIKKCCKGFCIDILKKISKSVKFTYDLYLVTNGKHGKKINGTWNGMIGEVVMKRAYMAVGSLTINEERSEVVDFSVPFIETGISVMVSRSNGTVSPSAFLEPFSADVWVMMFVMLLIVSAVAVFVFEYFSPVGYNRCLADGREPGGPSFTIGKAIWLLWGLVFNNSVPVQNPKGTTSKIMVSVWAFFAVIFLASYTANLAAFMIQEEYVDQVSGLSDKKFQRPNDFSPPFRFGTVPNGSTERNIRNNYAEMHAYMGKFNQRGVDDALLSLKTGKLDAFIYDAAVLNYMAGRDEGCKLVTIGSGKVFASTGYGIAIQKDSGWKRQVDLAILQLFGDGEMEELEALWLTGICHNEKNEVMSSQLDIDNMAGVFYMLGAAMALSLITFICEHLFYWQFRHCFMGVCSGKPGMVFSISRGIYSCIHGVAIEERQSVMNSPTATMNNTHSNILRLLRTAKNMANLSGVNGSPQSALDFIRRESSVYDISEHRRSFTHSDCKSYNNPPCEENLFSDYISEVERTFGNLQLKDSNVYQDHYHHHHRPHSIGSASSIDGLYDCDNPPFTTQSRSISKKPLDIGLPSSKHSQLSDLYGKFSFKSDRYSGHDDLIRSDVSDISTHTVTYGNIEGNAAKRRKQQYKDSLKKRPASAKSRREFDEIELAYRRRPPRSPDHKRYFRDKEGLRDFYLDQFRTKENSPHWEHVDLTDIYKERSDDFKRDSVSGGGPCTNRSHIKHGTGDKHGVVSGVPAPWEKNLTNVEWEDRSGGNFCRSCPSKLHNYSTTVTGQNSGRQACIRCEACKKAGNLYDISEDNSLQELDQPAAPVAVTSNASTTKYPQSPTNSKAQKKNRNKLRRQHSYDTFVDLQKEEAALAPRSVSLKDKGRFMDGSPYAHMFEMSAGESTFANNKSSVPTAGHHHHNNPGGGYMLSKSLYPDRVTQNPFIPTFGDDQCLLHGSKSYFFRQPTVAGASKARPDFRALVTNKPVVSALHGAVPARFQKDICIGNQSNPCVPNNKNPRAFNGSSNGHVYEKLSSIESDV
- assay: Cell-based calcium flux (FLIPR) assay on cloned human NR1/NR2B ion channels expressed in mammalian cells
- assay.setup: standard assay; glutamate at ~EC80; FLIPR calcium flux
observed.property: IC50 (µM)

| cpd.smiles | observed.property | unit.annotation | value.relation.sign | test.value |
| --- | --- | --- | --- | --- |
| Fc1ccc(-n2cc(COc3ncc(N4CC(F)(F)C4)cn3)nn2)cc1C(F)F | IC50 | µM | = | 0.029 |
| CNc1ccnc(OCc2cn(-c3ccc(F)c(C(F)F)c3)nn2)n1 | IC50 | µM | = | 0.015 |
| Cc1cnc(OCc2cn(-c3cc(C)ccn3)nn2)nc1 | IC50 | µM | > | 2.99 |
| Cc1c(F)ccc(-n2cc(COc3nccc(C(F)F)n3)nn2)c1F | IC50 | µM | = | 2.21 |
| CNc1ccnc(OCc2cn(-c3ccc(F)c(C(F)(F)F)c3)nn2)n1 | IC50 | µM | = | 0.034 |
| COc1cnc(OCc2cn(-c3ccc(F)c(F)c3)nn2)nc1 | IC50 | µM | = | 0.034 |
| Fc1ccc(-n2cc(COc3ncc(N4CC(F)(F)C4)cn3)nn2)cc1OC(F)F | IC50 | µM | = | 0.019 |

----------
Property: IC50; scope: individual compounds
- study.system: human GluN1/GluN2B NMDA receptors (Homo sapiens, UniProt Q05586+Q13224)
- assay: Cell-based calcium flux (FLIPR) assay on cloned human NR1/NR2B ion channels expressed in mammalian cells
- assay.setup: standard assay; glutamate at ~EC80; FLIPR calcium flux

| cpd.smiles | IC50 (µM) |
| --- | --- |
| Cc1c(F)ccc(-n2cc(COc3ncc(OC(F)F)cn3)nn2)c1F | 0.099 |
| CCc1cnc(OCc2cn(-c3cc(C)c(F)cc3F)nn2)nc1 | 0.507 |
| Cc1nc(OCc2cn(-c3ccc(F)c(OC(F)F)c3)nn2)ncc1F | 0.004 |
| CC(F)(F)c1cc(-n2cc(COc3ncc(N4CC(F)C4)cn3)nn2)ccc1F | 0.013 |

----------
- study.system: human GluN1/GluN2B NMDA receptors (Homo sapiens, UniProt Q05586+Q13224)
- assay: Cell-based calcium flux (FLIPR) assay on cloned human NR1/NR2B ion channels expressed in mammalian cells
- assay.setup: standard assay; glutamate at ~EC80; FLIPR calcium flux
Property: IC50; scope: individual molecules
observed.property: IC50 (µM)

| cpd.smiles | value.relation.sign | test.value |
| --- | --- | --- |
| COCc1ccnc(OCc2cn(-c3ccc(F)c(C(C)(F)F)c3)nn2)n1 | = | 0.011 |
| CC(F)(F)c1cc(-n2cc(COc3ncc(OC(F)F)cn3)nn2)ccc1Cl | = | 0.012 |
| Cc1ccc(-n2cc(COc3ncc(C(C)(C)O)cn3)nn2)cc1OC(F)F | = | 0.425 |
| CCc1cnc(OCc2cn(-c3cccc(C)n3)nn2)nc1 | > | 2.99 |
| CC(F)(F)c1cc(-n2cc(COc3ncc(CO)cn3)nn2)ccc1F | = | 0.021 |

----------
Property: IC50; scope: individual molecules
- study.system: human GluN1/GluN2B NMDA receptors (Homo sapiens, UniProt Q05586+Q13224)
- assay: Cell-based calcium flux (FLIPR) assay on cloned human NR1/NR2B ion channels expressed in mammalian cells
- assay.setup: standard assay; glutamate at ~EC80; FLIPR calcium flux

| molecule | IC50 / µM |
| --- | --- |
| CCOc1cnc(OCc2cn(-c3ccc(F)c(C(F)(F)F)c3)nn2)nc1 [Example 443] | 0.004 |
| Cc1cc(F)ccc1-n1cc(COc2ncc(Cl)cn2)nn1 [Example 489] | 4.42 |
| Fc1ccc(-n2cc(COc3nccc(-c4ccco4)n3)nn2)cc1C(F)F [Example 424] | 0.141 |
| CC(F)(F)c1cnc(OCc2cn(-c3ccc(F)c(C(F)F)c3)nn2)nc1 [Example 701] | 0.958 |
| CC(F)(F)c1cc(-n2cc(COc3nccc(C(F)F)n3)nn2)ccc1F [Example 563] | 0.048 |
| Cc1nc(OCc2cn(-c3ccc(Cl)c(C(C)(F)F)c3)nn2)ncc1F [Example 544] | 0.015 |
| CCc1cnc(OCc2cn(-c3cc(C)ccn3)nn2)nc1 [Example 663] | 2.45 |
| Cc1cccc(-n2cc(COc3ncc(Cl)c(C)n3)nn2)c1F [Example 470] | 0.659 |
| CCNc1cnc(OCc2cn(-c3ccc(F)c(C(F)(F)F)c3)nn2)nc1C [Example 458] | 0.439 |
| CC(F)(F)c1cc(-n2cc(COc3nccc(N4CCCC4)n3)nn2)ccc1Cl [Example 553] | 0.043 |
| CC(C)(O)c1cnc(OCc2cn(-c3cc(F)ccc3F)nn2)nc1 [Example 604] | 79.7 |
| FC(F)c1ccnc(OCc2cn(-c3ccc(Cl)c(C(F)F)c3)nn2)n1 [Example 628] | 0.042 |
| Cc1cnc(OCc2nnn(-c3ccc(F)c(C(F)F)c3)c2I)nc1 [Example 425] | 0.394 |
| CN(C)c1ccnc(OCc2cn(-c3ccc(F)c(C(C)(F)F)c3)nn2)n1 [Example 582] | 0.028 |
| CC(O)(c1cnc(OCc2cn(-c3ccc(F)c(C(F)F)c3)nn2)nc1)C(F)(F)F (racemic) [Example 404] | 0.482 |
| FC(F)c1cc(-n2cc(COc3nccc(N4CCCC4)n3)nn2)ccc1Cl [Example 634] | 0.012 |
